Biological target: Tyrosine-protein kinase JAK3 (Homo sapiens)
Settings: at 1 µM
Description: GSK_PKIS: JAK3 mean inhibition at 1 uM [Nanosyn]
reported.endpoint: inhibition (%)
Kindly provide the numeric value in % only, without the unit symbol.

Value wanted: inhibition (Tyrosine-protein kinase JAK3 (Homo sapiens)) of entry COc1cc(N2CCN(C(C)C)CC2)ccc1Nc1nc(Nc2ccc(F)cc2C(N)=O)c2cc[nH]c2n1
11.6

Value wanted: inhibition (Tyrosine-protein kinase JAK3 (Homo sapiens)) of entry COc1ccc(CNC(=O)c2ccc(-c3cc(-c4nnc(C)o4)ccc3C)cc2)cc1
3

Value wanted: inhibition (Tyrosine-protein kinase JAK3 (Homo sapiens)) of entry Cc1ccc(O)cc1Nc1ccnc2cc(-c3ccccn3)ccc12
0.79

Value wanted: inhibition (Tyrosine-protein kinase JAK3 (Homo sapiens)) of entry CNC(=O)c1cc(-c2ccc(F)cc2)cc(-c2ccc(S(=O)(=O)N3CCCC3)cc2)c1N
-0.38

Value wanted: inhibition (Tyrosine-protein kinase JAK3 (Homo sapiens)) of entry Fc1ccc(-c2nn3ccccc3c2-c2ccncc2)cc1
0.18

Value wanted: inhibition (Tyrosine-protein kinase JAK3 (Homo sapiens)) of entry N#Cc1c(NC(=O)CN2CCOCC2)sc2c1CCCC2
1.28
